Target: T1, IL-18 receptors on HEK-Blue IL-18 reporter cells (UniProt Q13478 19-541; O95256 20-599, limits assumed); also: unit not given here
T1 sequence (looked up) 1: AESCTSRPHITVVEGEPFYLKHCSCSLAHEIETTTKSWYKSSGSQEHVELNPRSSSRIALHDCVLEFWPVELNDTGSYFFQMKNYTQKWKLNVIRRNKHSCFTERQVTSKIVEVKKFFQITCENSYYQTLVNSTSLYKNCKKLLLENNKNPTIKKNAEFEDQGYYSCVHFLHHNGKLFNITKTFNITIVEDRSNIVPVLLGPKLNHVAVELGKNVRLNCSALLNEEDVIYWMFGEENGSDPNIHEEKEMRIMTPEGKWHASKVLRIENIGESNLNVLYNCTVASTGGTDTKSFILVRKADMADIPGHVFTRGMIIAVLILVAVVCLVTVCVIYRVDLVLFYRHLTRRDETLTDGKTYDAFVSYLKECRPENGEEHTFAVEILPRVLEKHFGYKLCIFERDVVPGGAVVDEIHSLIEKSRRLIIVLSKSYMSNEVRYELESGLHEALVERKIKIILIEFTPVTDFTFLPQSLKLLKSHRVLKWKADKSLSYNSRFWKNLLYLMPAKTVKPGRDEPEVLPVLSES
T1 sequence (looked up) 2: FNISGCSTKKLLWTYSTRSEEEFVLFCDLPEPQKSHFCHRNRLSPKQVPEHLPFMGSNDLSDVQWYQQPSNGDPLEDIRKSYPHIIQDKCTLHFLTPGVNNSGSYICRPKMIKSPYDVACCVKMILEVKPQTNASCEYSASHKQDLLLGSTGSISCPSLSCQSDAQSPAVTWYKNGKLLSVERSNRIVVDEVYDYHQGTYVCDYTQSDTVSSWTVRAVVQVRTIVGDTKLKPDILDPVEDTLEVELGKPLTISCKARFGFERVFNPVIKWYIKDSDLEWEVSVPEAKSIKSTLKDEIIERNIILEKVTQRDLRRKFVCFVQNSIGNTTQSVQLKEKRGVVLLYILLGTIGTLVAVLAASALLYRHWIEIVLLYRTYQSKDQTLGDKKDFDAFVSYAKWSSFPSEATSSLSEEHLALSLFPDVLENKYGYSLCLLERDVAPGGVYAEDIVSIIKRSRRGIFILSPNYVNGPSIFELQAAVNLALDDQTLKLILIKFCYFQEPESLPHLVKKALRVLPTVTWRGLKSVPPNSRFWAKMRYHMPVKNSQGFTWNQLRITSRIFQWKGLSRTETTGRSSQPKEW
Assay: cell-based or functional assay
quantity_kind: HEK-Blue activity, No BP, DF-10000
Answer with a number only.

So what does the record say about HEK-Blue activity, No BP, DF-10000 for IL-18 variant K53H, S55M (ligand) YFGKLESKLSVIRNLNDQVLFIDQGNRPLFEDMTDSDMRDNAPRTIFIISMYHDMQPRGMAVTISVKSEKISTLSSENKIISFKEMNPPDNIKDTKSDIIFFQRSVPGHDNKMQFESSSYEGYFLASEKERDLFKLILKKEDELGDRSIMFTVQNED ?
0.13

Dear colleague, I am looking for the recorded HEK-Blue activity, No BP, DF-10000 of the following binder: IL-18 variant K53D, S55Q, H109Y (ligand) YFGKLESKLSVIRNLNDQVLFIDQGNRPLFEDMTDSDMRDNAPRTIFIISMYDDQQPRGMAVTISVKSEKISTLSSENKIISFKEMNPPDNIKDTKSDIIFFQRSVPGYDNKMQFESSSYEGYFLASEKERDLFKLILKKEDELGDRSIMFTVQNED
0.23

Fill in: HEK-Blue activity, No BP, DF-10000 of IL-18 variant T34N, S36N, D40E, N41G, K53S, S55Q, R104N, H109Y (ligand) YFGKLESKLSVIRNLNDQVLFIDQGNRPLFEDMNDNDMREGAPRTIFIISMYSDQQPRGMAVTISVKSEKISTLSSENKIISFKEMNPPDNIKDTKSDIIFFQNSVPGYDNKMQFESSSYEGYFLASEKERDLFKLILKKEDELGDRSIMFTVQNED is ___
0.09

Given the binder IL-18 variant T34M, S36T, D37E, D40T, N41M, K53T, S55W (ligand) YFGKLESKLSVIRNLNDQVLFIDQGNRPLFEDMMDTEMRTMAPRTIFIISMYTDWQPRGMAVTISVKSEKISTLSSENKIISFKEMNPPDNIKDTKSDIIFFQRSVPGHDNKMQFESSSYEGYFLASEKERDLFKLILKKEDELGDRSIMFTVQNED , what is its reported HEK-Blue activity, No BP, DF-10000?
0.29

Consider the binder shown here: IL-18 variant K53G, S55I, R104K, P107Y (ligand) YFGKLESKLSVIRNLNDQVLFIDQGNRPLFEDMTDSDMRDNAPRTIFIISMYGDIQPRGMAVTISVKSEKISTLSSENKIISFKEMNPPDNIKDTKSDIIFFQKSVYGHDNKMQFESSSYEGYFLASEKERDLFKLILKKEDELGDRSIMFTVQNED What is its recorded HEK-Blue activity, No BP, DF-10000?
0.1

Recorded HEK-Blue activity, No BP, DF-10000 of IL-18 variant K53N, S55Y (ligand) YFGKLESKLSVIRNLNDQVLFIDQGNRPLFEDMTDSDMRDNAPRTIFIISMYNDYQPRGMAVTISVKSEKISTLSSENKIISFKEMNPPDNIKDTKSDIIFFQRSVPGHDNKMQFESSSYEGYFLASEKERDLFKLILKKEDELGDRSIMFTVQNED , please.
0.16

Name the reported HEK-Blue activity, No BP, DF-10000 value associated with the binder IL-18 variant K53H, S55R (ligand) YFGKLESKLSVIRNLNDQVLFIDQGNRPLFEDMTDSDMRDNAPRTIFIISMYHDRQPRGMAVTISVKSEKISTLSSENKIISFKEMNPPDNIKDTKSDIIFFQRSVPGHDNKMQFESSSYEGYFLASEKERDLFKLILKKEDELGDRSIMFTVQNED
0.12
